B1: LINE1-full (parent)
chain: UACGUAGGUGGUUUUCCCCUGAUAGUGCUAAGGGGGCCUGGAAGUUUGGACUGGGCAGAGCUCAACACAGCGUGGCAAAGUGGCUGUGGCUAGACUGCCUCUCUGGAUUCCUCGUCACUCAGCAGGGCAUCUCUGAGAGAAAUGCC

variants of: B1; experiment: self-cleavage, relative activity (ratio to wild type); higher = more cleavage; in vitro, sequencing; the parent is a self-cleaving ribozyme
Reported self-cleavage is given for each of the following variants.
Lab note: record just the number, no unit beside it.

Field: example entries. Status: answers known.
| VARIANT_ANNOTATION | self-cleavage |
| --- | --- |
| G32A A78U | 1.32 |
| A69U C99G | 0.09 |
| U15A A121G | 1.15 |

Give the measured self-cleavage for U104A A140U
1.03

Give the measured self-cleavage for U13C C145A
1.6

Values were extracted from the RNAGym collection of RNA variant scans (doi:10.7554/elife.90254).
